Tested on: IL-12 mRNA
Experiment: IL-12 mRNA in LPS-activated primary murine macrophages
Format: cell-based, mouse
Conditions: 300 nM oligomeric compound, stimulation with IFN-gamma and LPS; average of 2 experiments; normalized to LPS-treated cells without oligomeric compound
Procedure: To investigate the role of miRNAs in the immune response, oligomeric compounds of the present invention targeting miRNAs were tested for their effects upon lipopolysaccharide (LPS)-activated primary murine macrophages. Macrophages participate in the immune response, for example, in the recognition and phagocytosis of microorganisms, including bacteria. […]
In the oligonucleotide strings, read from the 5' end, every base follows the letter of its sugar. An asterisk marks phosphorothioate; unmarked linkages are phosphodiester. Other units and linkages are bracketed, terminal groups are in braces. A string of capitals states the bases alone. e = 2'-O-(2-methoxyethyl) (MOE); [5mC] = 5-methylcytosine; d = 2'-deoxy (DNA)
reported_property: IL-12 mRNA expression, +IFN % UTC (% UTC)
Hi! Could you send only the number? It should be in % UTC, unit omitted.

341790 (antisense CGAAGGCAACACGGAUAACCUA; all 2'-MOE, all phosphorothioate, methylation of C and T or U not given here) [compound 341790]	84
328105 (antisense e[5mC]*e[5mC]*eT*e[5mC]*eA*eA*eT*eT*eA*eT*eT*eG*eG*eA*eA*eA*eT*e[5mC]*eA*e[5mC]*eA) [compound 328105]	57
327945 (antisense e[5mC]*eT*eG*eT*eT*e[5mC]*e[5mC]*eT*eG*e[5mC]*eT*eG*eA*eA*e[5mC]*eT*eG*eA*eG*e[5mC]*e[5mC]*eA) [compound 327945]	68

Q: Data request, read-out IL-12 mRNA expression, +IFN % UTC, for 327890 (antisense eA*eG*e[5mC]*eA*e[5mC]*eA*eA*eA*e[5mC]*eT*eA*e[5mC]*eT*eA*e[5mC]*e[5mC]*eT*e[5mC]*eA) [compound 327890]
Ans: 94

Q: Lookup 327883 (antisense e[5mC]*eA*eG*eA*eA*e[5mC]*eT*eT*eA*eG*e[5mC]*e[5mC]*eA*e[5mC]*eT*eG*eT*eG*eA*eA) [compound 327883]
Ans: 39

Q: Again, but for 327971 (antisense eG*eG*eA*eA*eA*eT*e[5mC]*e[5mC]*e[5mC]*eT*eG*eG*e[5mC]*eA*eA*eT*eG*eT*eG*eA*eT) [compound 327971]
Ans: 17

Q: Repeat with 129690 (antisense TTAGAATACGTCGCGTTATG; sugars from the 5' end e5 d10 e5, all phosphorothioate, methylation of C not given here) [compound 129690]
Ans: 129

* * *

system: HuVECs; assay: Endothelial tube formation assay in HuVECs; settings: 75 nM oligomeric compound, Table 59
In the oligonucleotide strings, read from the 5' end, every base follows the letter of its sugar. An asterisk marks phosphorothioate; unmarked linkages are phosphodiester. Other units and linkages are bracketed, terminal groups are in braces. A string of capitals states the bases alone. e = 2'-O-(2-methoxyethyl) (MOE); [5mC] = 5-methylcytosine
Let's look at some substances and their measured % Activity Relative to UTC (tube formation).
Value expressed in %; do not type the unit.

See these solved cases before continuing.
327957 (antisense e[5mC]*eA*e[5mC]*eA*eA*eG*eT*eT*e[5mC]*eG*eG*eA*eT*e[5mC]*eT*eA*e[5mC]*eG*eG*eG*eT*eT) [compound 327957]	66.7
327955 (antisense eG*e[5mC]*e[5mC]*e[5mC]*eT*eT*eT*e[5mC]*eA*eT*e[5mC]*eA*eT*eT*eG*e[5mC]*eA*e[5mC]*eT*eG) [compound 327955]	46.7
327964 (antisense e[5mC]*e[5mC]*eA*eA*eG*eT*eT*e[5mC]*eT*eG*eT*e[5mC]*eA*eT*eG*e[5mC]*eA*e[5mC]*eT*eG*eA) [compound 327964]	86.7
327960 (antisense eG*eT*e[5mC]*eT*eG*eT*e[5mC]*eA*eA*eT*eT*e[5mC]*eA*eT*eA*eG*eG*eT*e[5mC]*eA*eT) [compound 327960]	53.3

Q: Entry 327965 (antisense eA*eT*e[5mC]*eA*e[5mC]*eA*eT*eA*eG*eG*eA*eA*eT*eA*eA*eA*eA*eA*eG*e[5mC]*e[5mC]*eA*eT*eA) [compound 327965] has what % Activity Relative to UTC (tube formation)?
Ans: 100.0

Q: What do we get for 327953 (antisense eA*eG*eA*eA*eT*eT*eG*e[5mC]*eG*eT*eT*eT*eG*eG*eA*e[5mC]*eA*eA*eT*e[5mC]*eA) [compound 327953] ?
Ans: 53.3

Q: Try this substance too: 327951 (antisense e[5mC]*eA*e[5mC]*eA*eA*eA*e[5mC]*e[5mC]*eA*eT*eT*eA*eT*eG*eT*eG*e[5mC]*eT*eG*e[5mC]*eT*eA) [compound 327951]
Ans: 73.3

Q: Please do the same for 327958 (antisense e[5mC]*e[5mC]*eG*eG*e[5mC]*eT*eG*e[5mC]*eA*eA*e[5mC]*eA*e[5mC]*eA*eA*eG*eA*e[5mC]*eA*e[5mC]*eG*eA) [compound 327958] as well.
Ans: 40.0

Q: Okay, and 327968 (antisense e[5mC]*eA*eA*eT*eG*e[5mC]*eA*eA*e[5mC]*eA*eG*e[5mC]*eA*eA*eT*eG*e[5mC]*eA*e[5mC]) [compound 327968] ?
Ans: 93.3

Q: Then 327954 (antisense eA*e[5mC]*eA*eA*eA*eG*eT*eT*e[5mC]*eT*eG*eT*eG*eA*eT*eG*e[5mC]*eA*e[5mC]*eT*eG*eA) [compound 327954] ?
Ans: 53.3

Q: Field entry: 327874 (antisense eG*e[5mC]*eT*eG*e[5mC]*eA*eA*eA*e[5mC]*eA*eT*e[5mC]*e[5mC]*eG*eA*e[5mC]*eT*eG*eA*eA*eA*eG) [compound 327874]
Ans: 46.7

Q: Same for 327959 (antisense e[5mC]*eA*eG*e[5mC]*e[5mC]*eG*e[5mC]*eT*eG*eT*e[5mC]*eA*e[5mC]*eA*e[5mC]*eG*e[5mC]*eA*e[5mC]*eA*eG) [compound 327959]
Ans: 40.0

* * *

Reported values of aP2 for individual entries
tested on: differentiated adipocytes; test: Hallmark genes and triglycerides in differentiated adipocytes; assay type: cell-based, human; conditions: Table 28; differentiated adipocytes transfected day nine post-differentiation; 250 nM oligonucleotide
In the oligonucleotide strings, read from the 5' end, every base follows the letter of its sugar. An asterisk marks phosphorothioate; unmarked linkages are phosphodiester. Other units and linkages are bracketed, terminal groups are in braces. A string of capitals states the bases alone. e = 2'-O-(2-methoxyethyl) (MOE); [5mC] = 5-methylcytosine; d = 2'-deoxy (DNA)
I only need the number, thanks.

Record excerpt, results attached:
327876 (antisense eA*eA*e[5mC]*eA*e[5mC]*eT*eG*eA*eT*eT*eT*e[5mC]*eA*eA*eA*eT*eG*eG*eT*eG*e[5mC]*eT*eA) [compound 327876]	0.67
327922 (antisense eT*e[5mC]*eA*eG*eT*eT*eT*eT*eG*e[5mC]*eA*eT*eG*eG*eA*eT*eT*eT*eG*e[5mC]*eA*e[5mC]*eA) [compound 327922]	0.91
327905 (antisense e[5mC]*eA*eG*eA*e[5mC]*eT*e[5mC]*e[5mC]*eG*eG*eT*eG*eG*eA*eA*eT*eG*eA*eA*eG*eG*eA) [compound 327905]	0.85
327941 (antisense eA*eA*e[5mC]*e[5mC]*e[5mC]*eA*e[5mC]*e[5mC]*eG*eA*e[5mC]*eA*eG*e[5mC]*eA*eA*eT*eG*eA*eA*eT*eG*eT*eT) [compound 327941]	0.90
327878 (antisense e[5mC]*eT*eA*eG*eT*eG*eG*eT*e[5mC]*e[5mC]*eT*eA*eA*eA*e[5mC]*eA*eT*eT*eT*e[5mC]*eA*e[5mC]) [compound 327878]	0.13

Q: Dear colleague, I am looking for the recorded aP2 of the following substance: 328382 (e[5mC]*eA*eG*eA*e[5mC]*dT*d[5mC]*d[5mC]*d[5mC]*dA*dA*d[5mC]*dT*dG*dA*e[5mC]*e[5mC]*eA*eG*eA) [compound 328382]
Ans: 0.92

Q: Again, but for 327888 (antisense eA*eA*eT*eG*e[5mC]*e[5mC]*e[5mC]*e[5mC]*eT*eA*eA*eA*eA*eA*eT*e[5mC]*e[5mC]*eT*eT*eA*eT) [compound 327888]
Ans: 0.73

* * *

Each record here notes measured PEPCKc mRNA expression.
system: PEPCK-c; experiment: PEPCK-c mRNA expression in HepG2 cells; assay type: cell-based, human; conditions: Experiment 2, insulin treated: HepG2 cells transfected with oligomeric compound, 1 nM insulin for four hours; UTC + 1 nM insulin = 100
In the oligonucleotide strings, read from the 5' end, every base follows the letter of its sugar. An asterisk marks phosphorothioate; unmarked linkages are phosphodiester. Other units and linkages are bracketed, terminal groups are in braces. A string of capitals states the bases alone. e = 2'-O-(2-methoxyethyl) (MOE); [5mC] = 5-methylcytosine; d = 2'-deoxy (DNA)
Quick one: just the number, no unit, thanks!

328774 (antisense eG*e[5mC]*eA*e[5mC]*e[5mC]*d[5mC]*dG*d[5mC]*d[5mC]*dT*d[5mC]*dA*d[5mC]*dA*d[5mC]*eA*e[5mC]*eG*eT*eG) [compound 328774]	77
327964 (antisense e[5mC]*e[5mC]*eA*eA*eG*eT*eT*e[5mC]*eT*eG*eT*e[5mC]*eA*eT*eG*e[5mC]*eA*e[5mC]*eT*eG*eA) [compound 327964]	122
327918 (antisense e[5mC]*eT*eA*eG*eT*eA*e[5mC]*eA*eT*e[5mC]*eA*eT*e[5mC]*eT*eA*eT*eA*e[5mC]*eT*eG*eT*eA) [compound 327918]	107
327961 (antisense eG*eG*eG*eG*eT*eA*eT*eT*eT*eG*eA*e[5mC]*eA*eA*eA*e[5mC]*eT*eG*eA*e[5mC]*eA) [compound 327961]	126
327946 (antisense eA*eG*eG*e[5mC]*eG*eA*eA*eG*eG*eA*eT*eG*eA*e[5mC]*eA*eA*eA*eG*eG*eG*eA*eA) [compound 327946]	99
327950 (antisense eT*e[5mC]*eA*eG*eT*eT*eT*eT*eG*e[5mC]*eA*eT*eA*eG*eA*eT*eT*eT*eG*e[5mC]*eA*e[5mC]*eA) [compound 327950]	82
327965 (antisense eA*eT*e[5mC]*eA*e[5mC]*eA*eT*eA*eG*eG*eA*eA*eT*eA*eA*eA*eA*eA*eG*e[5mC]*e[5mC]*eA*eT*eA) [compound 327965]	64
328649 (eG*eT*eA*eG*eA*dT*dA*dA*d[5mC]*dT*dA*dA*dA*d[5mC]*dA*e[5mC]*eT*eA*e[5mC]*e[5mC]; antisense) [compound 328649]	86

Q: Field request: PEPCKc mRNA expression | item: 327949 (antisense e[5mC]*eA*e[5mC]*eA*eA*eA*eT*eT*e[5mC]*eG*eG*eA*eT*e[5mC]*eT*eA*e[5mC]*eA*eG*eG*eG*eT*eA) [compound 327949]
Ans: 101

Q: Now the substance 327923 (antisense eG*eA*eA*eA*eG*eA*eG*eA*e[5mC]*e[5mC]*eG*eG*eT*eT*e[5mC]*eA*e[5mC]*eT*eG*eT*eG*eA) [compound 327923]
Ans: 125

Q: Queued: 328423 (antisense e[5mC]*e[5mC]*eA*e[5mC]*eA*dT*dA*dT*dA*d[5mC]*dA*dT*dA*dT*dA*eT*eA*e[5mC]*eG*e[5mC]) [compound 328423]
Ans: 77

Q: Field entry: 327952 (antisense e[5mC]*eT*eA*e[5mC]*eG*e[5mC]*eG*eT*eA*eT*eT*e[5mC]*eT*eT*eA*eA*eG*e[5mC]*eA*eA*eT*eA) [compound 327952]
Ans: 85

Q: Please give the result for 328114 (antisense eA*eA*eT*e[5mC]*eT*e[5mC]*eA*eT*eT*eT*eT*e[5mC]*eA*eT*eA*e[5mC]*eT*eT*eG*e[5mC]*eA) [compound 328114] too.
Ans: 41

Q: Query 328764 (antisense eA*eG*eA*eT*eG*dT*dT*dT*d[5mC]*dT*dG*dG*d[5mC]*d[5mC]*dT*eG*e[5mC]*eG*eA*eG) [compound 328764] next
Ans: 68

Source listed as patent US8178506B2.
